Target: recombinant N-terminal GST-tagged human Rho kinase 1 (ROCK1, amino acids 1-535) (Homo sapiens, UniProt Q13464)
Construct: ROCK1, amino acids 1-535, Invitrogen Inc., cat. #PV-3691; GST (N)
Sequence (Q13464 1-535): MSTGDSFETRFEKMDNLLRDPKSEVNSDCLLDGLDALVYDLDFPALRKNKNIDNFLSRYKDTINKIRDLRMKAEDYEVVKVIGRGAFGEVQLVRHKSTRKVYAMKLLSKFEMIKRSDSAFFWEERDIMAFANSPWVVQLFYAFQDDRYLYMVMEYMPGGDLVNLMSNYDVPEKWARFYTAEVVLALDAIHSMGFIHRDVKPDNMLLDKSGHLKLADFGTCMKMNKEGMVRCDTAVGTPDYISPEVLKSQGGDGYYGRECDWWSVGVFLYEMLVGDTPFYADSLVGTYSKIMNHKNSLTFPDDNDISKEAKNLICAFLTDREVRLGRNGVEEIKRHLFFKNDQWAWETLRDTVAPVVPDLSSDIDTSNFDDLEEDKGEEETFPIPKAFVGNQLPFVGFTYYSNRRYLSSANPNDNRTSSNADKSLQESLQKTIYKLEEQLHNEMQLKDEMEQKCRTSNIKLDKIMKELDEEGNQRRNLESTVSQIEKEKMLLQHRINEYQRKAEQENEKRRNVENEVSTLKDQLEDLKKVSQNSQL
Assay: In vitro Rho kinase assay (luciferase-based ATP consumption), ROCK1
# key: entry, value: IC50

Answered examples (2):
>>> value("O=C(CCc1nc(-c2ccncc2)n[nH]1)c1ccc(O)cc1 [Example 63]")
"< 5 µM"
>>> value("O=C(NCc1nc(-c2ccncc2)n[nH]1)c1ccsc1 [Example 17]")
"< 5 µM"

// query For CC(C)C(=O)Oc1ccc(C(=O)NCc2nc(-c3ccncc3)n[nH]2)c(O)c1 [Example 35] , what is its reported IC50?
// result < 5 µM

// query For CCc1cccc(C(=O)NCc2nc(-c3ccncc3)n[nH]2)c1O [Example 52] , what is its reported IC50?
// result < 5 µM

// query For Cn1nc(-c2ccncc2)nc1CNC(=O)c1cccs1 [Example 50] , what is its reported IC50?
// result > 5 µM

----------
Target: recombinant N-terminal GST-tagged human Rho kinase 2 (ROCK2, amino acids 1-552) (Homo sapiens)
Construct: ROCK2, amino acids 1-552, Invitrogen Inc., cat #PV3759; GST (N)
Sequence (O75116 1-552): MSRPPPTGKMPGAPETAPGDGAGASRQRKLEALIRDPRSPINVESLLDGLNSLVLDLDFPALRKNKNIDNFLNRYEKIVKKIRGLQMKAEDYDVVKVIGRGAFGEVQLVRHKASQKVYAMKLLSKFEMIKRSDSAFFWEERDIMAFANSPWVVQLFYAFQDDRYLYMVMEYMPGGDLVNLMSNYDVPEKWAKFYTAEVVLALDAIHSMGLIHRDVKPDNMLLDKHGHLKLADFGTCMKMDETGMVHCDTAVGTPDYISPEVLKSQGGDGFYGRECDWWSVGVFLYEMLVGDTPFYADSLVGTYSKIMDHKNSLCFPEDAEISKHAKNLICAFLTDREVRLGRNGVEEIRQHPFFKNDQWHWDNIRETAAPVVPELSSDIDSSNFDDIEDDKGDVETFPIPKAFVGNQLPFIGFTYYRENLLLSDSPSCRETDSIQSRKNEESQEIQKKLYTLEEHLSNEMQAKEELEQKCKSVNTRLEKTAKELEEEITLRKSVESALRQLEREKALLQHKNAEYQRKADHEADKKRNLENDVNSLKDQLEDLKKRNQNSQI
Experiment: In vitro Rho kinase assay (luciferase-based ATP consumption), ROCK2
pIC50: −log10 of the molar value.
Experimental endpoint: pIC50

>>> value("c1ccc2c(NCc3nc(-c4ccncc4)n[nH]3)n[nH]c2c1")
"< 5.30"
>>> value("O=C(NCc1nc(-c2c[nH]c3ncccc23)n[nH]1)c1ccc(O)cc1O")
"> 5.30"
>>> value("O=C(NCc1nc(-c2ccncc2)n[nH]1)c1cccc(Cl)c1O")
"> 5.30"

// query For NC1CCN(C(=O)Cc2nc(-c3ccncc3)n[nH]2)C1 (stereo not shown) , what is its reported pIC50?
// result < 5.30

// query For CN(Cc1nc(-c2ccncc2)n[nH]1)C(=O)c1ccc(O)cc1O , what is its reported pIC50?
// result < 5.30

// query For O=C(c1cccs1)N1CCCC1c1nc(-c2ccncc2)n[nH]1 (stereo not shown) , what is its reported pIC50?
// result < 5.30

// query For O=C(NCc1nc(-c2c[nH]c3ncccc23)cs1)c1cccs1 , what is its reported pIC50?
// result > 5.30

----------
# key: entry, value: IC50
Biological target: recombinant N-terminal GST-tagged human Rho kinase 1 (ROCK1, amino acids 1-535) (Homo sapiens)
Construct: ROCK1, amino acids 1-535, Invitrogen Inc., cat. #PV-3691; GST (N)
Assay: In vitro Rho kinase assay (luciferase-based ATP consumption), ROCK1

Answered examples (3):
>>> value("O=C(NCc1nc(-c2ccncc2)n[nH]1)c1cccs1")
"< 5 µM"
>>> value("Cc1cccc(C(=O)NCc2nc(-c3ccncc3)c[nH]2)c1O")
"< 5 µM"
>>> value("Cc1c(Cl)ccc(S(=O)(=O)NCc2nc(-c3ccncc3)n[nH]2)c1O")
"> 5 µM"

Kindly review the next molecule as well.
// query For Cc1cc(C(=O)NCc2nc(-c3ccncc3)n[nH]2)ccc1O , what is its reported IC50?
// result < 5 µM
